For each record, write down the corresponding resistance.
- Tested on: ATCC6872
- Protocol text: Resistance/susceptibility of strain ATCC6872 to substances (minimal medium, 1.7% agar)
- Assay type: cell-based, Corynebacterium stationis
Give bare numbers, in µg/mL.

> print(dat)
                                   compound  measured.target  data.value
1  [H]/N=C(/N)NS(=O)(=O)c1ccc(N)cc1 [Sulfaguanidine]         ATCC6872          50
2             CCC[C@H](N)C(=O)O [Norvaline]         ATCC6872         200
3  O=C(O)C1C=CCN1 (stereo not shown) [3,4-Dihydroproline]         ATCC6872        1000

# input for lookup
*Q* May I ask what resistance has been recorded for O=C(O)[C@@H]1CSCN1 [Thiaproline] ?
*A* 10
